Molecular target: Beta Secretase enzyme (BACE) (Homo sapiens)
Assay: In vitro enzymatic BACE FRET (fluorescence resonance energy transfer) assay
Type: biochemical
Conditions: average IC50, enzyme assay; read-out: BACE 1 FRET assay
pIC50: −log10 of the molar value.
endpointLabel: pIC50

[
  {
    "molecule": "NC1=N[C@@]2(CO1)c1cc(-c3cc(Cl)ccc3Cl)ccc1Oc1ncc(C3=CCOCC3)cc12",
    "pIC50": 8.66
  },
  {
    "molecule": "CC1(/C=C/c2cnc3c(c2)[C@]2(COC(N)=N2)c2cc(-c4cccnc4F)ccc2O3)COC1",
    "pIC50": 9.30
  },
  {
    "molecule": "NC1=N[C@@]2(CS1)c1cc(-c3cccnc3F)ccc1Oc1c2cc(C2=CCOCC2)nc1F",
    "pIC50": 9.52
  },
  {
    "molecule": "NC1=N[C@@]2(CO1)c1cc(-c3cccnc3F)ccc1Oc1c2cc(N2CCC(F)(F)CC2)nc1F",
    "pIC50": 9.52
  },
  {
    "molecule": "CCc1cc2c(c(F)n1)Oc1ccc(-c3cncc(F)c3)cc1[C@@]21COC(N)=N1",
    "pIC50": 8.35
  },
  {
    "molecule": "Cn1cc(-c2cc3c(cc2F)Oc2ccc(-c4cccnc4F)cc2[C@@]32COC(N)=N2)cn1",
    "pIC50": 8.41
  }
]

1. CC(C)(C)COc1cc2c(cn1)Oc1ccc(-c3cccnc3F)cc1[C@@]21COC(N)=N1
2. NC1=N[C@@]2(CO1)c1cc(-c3ccc(F)nc3)ccc1Oc1c(F)cc(N3C[C@@H]4C[C@H]3CO4)cc12
3. CC1(COc2cnc3c(c2)C2(COC(N)=N2)c2cc(-c4cc(Cl)ccc4F)ccc2O3)OCCO1 (stereo not drawn)
4. CC1(C#Cc2cc(F)c3c(c2)[C@]2(COC(N)=N2)c2cc(-c4cncc(F)c4)ccc2O3)COC1
5. COc1ncc(-c2ccc3c(c2)[C@@]2(COC(N)=N2)c2cc(N4CCC(F)(F)CC4)ncc2O3)cn1
Would you mind ranking these molecules by ascending pIC50? API: response body holds the labels in the requested order.
5, 3, 2, 4, 1
(5: 6.76, 3: 8.08, 2: 8.51, 4: 8.96, 1: 9.40)

1. NC1=N[C@@]2(CO1)c1cc(-c3cccnc3)ccc1Oc1c2cc(N2CCC(F)(F)C2)nc1F
2. NC1=N[C@@]2(CO1)c1cc(-c3c(F)ccnc3F)ccc1Oc1cnc(-c3ccnc(F)c3)cc12
3. NC1=N[C@@]2(CO1)c1cc(Oc3cccc(Cl)n3)ccc1Oc1c(F)cc(C3=CCOCC3)cc12
Please give the order of these molecules when sorted by pIC50, largest value leading. API: response body holds the labels in the requested order.
1, 2, 3
(1: 9.40, 2: 8.70, 3: 7.64)

----------
Target: Beta Secretase enzyme (BACE) (Homo sapiens)
Test: In vitro enzymatic BACE FRET (fluorescence resonance energy transfer) assay
Type: biochemical
Conditions: average IC50, enzyme assay; read-out: BACE 1 FRET assay
pIC50: −log10 of the molar value.
endpointLabel: pIC50

[
  {
    "compound": "NC1=NC2(CS1)c1cc(-c3cccnc3F)ccc1Oc1c2cc(C2=CCOCC2)nc1F (centres unmarked)",
    "observedValue": 9.22
  },
  {
    "compound": "NC1=N[C@@]2(CO1)c1cc(-c3ccncc3F)ccc1Oc1cnc(-c3ccnc(F)c3)cc12",
    "observedValue": 7.15
  },
  {
    "compound": "Cc1ccnn1-c1cc(F)c2c(c1)[C@]1(COC(N)=N1)c1cc(-c3cccnc3)ccc1O2",
    "observedValue": 7.52
  },
  {
    "compound": "NC1=N[C@@]2(CO1)c1cc(-c3cncc(F)c3)ccc1Oc1c(F)cc(C3=CCOC3)cc12",
    "observedValue": 9.52
  }
]

a. NC1=N[C@@]2(CS1)c1cc(-c3cccc(Cl)c3)ccc1Oc1cnc(Cl)cc12
b. CC#Cc1cncc(-c2ccc3c(c2)[C@@]2(COC(N)=N2)c2cc(OC)cc(F)c2O3)c1
c. CC1(C#Cc2cnc3c(c2)[C@@]2(COC(N)=N2)c2cc(-c4cnccc4F)c(F)cc2O3)COC1
d. NC1=N[C@@]2(CO1)c1cc(-c3cncc(N4CC[C@H](F)C4)c3)ccc1Oc1cnc(Cl)cc12
Please give the order of these compounds when sorted by pIC50, largest value leading. API: response body holds the labels in the requested order.
b, a, c, d
(b: 9.70, a: 7.50, c: 6.98, d: 6.22)

----------
Target: Beta Secretase enzyme (BACE) (Homo sapiens, UniProt P56817)
Sequence (P56817 46-501, species assumed): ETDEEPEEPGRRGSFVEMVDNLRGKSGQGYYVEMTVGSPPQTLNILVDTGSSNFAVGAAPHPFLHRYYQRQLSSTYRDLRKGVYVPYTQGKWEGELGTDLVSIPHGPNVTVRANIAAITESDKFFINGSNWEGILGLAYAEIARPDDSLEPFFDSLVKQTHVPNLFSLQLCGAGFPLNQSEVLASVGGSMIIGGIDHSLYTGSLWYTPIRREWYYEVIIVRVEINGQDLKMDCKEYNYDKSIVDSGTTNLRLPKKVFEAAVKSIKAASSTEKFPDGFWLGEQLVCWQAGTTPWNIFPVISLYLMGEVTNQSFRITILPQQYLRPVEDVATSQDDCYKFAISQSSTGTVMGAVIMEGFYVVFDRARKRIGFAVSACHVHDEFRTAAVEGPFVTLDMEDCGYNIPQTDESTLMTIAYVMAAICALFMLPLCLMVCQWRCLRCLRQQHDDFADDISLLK
Assay: In vitro enzymatic BACE FRET (fluorescence resonance energy transfer) assay
Assay type: biochemical
Conditions: average IC50, enzyme assay; read-out: BACE 1 FRET assay
endpointLabel: IC50 (nM)

[
  {
    "compound": "NC1=N[C@@]2(CO1)c1cc(-c3c(F)ccnc3F)ccc1Oc1cnc(C3CCOCC3)cc12 [Example 616]",
    "IC50, nM": 17
  },
  {
    "compound": "COc1nc(Cl)cc2c1Oc1ccc(-c3cccnc3)cc1[C@@]21COC(N)=N1 [Example 830]",
    "IC50, nM": 469
  }
]

a. NC1=N[C@@]2(CO1)c1cc(-c3cccc(Cl)c3)ccc1Oc1cnc(C3CCOCC3)cc12 [Example 241]
b. NC1=N[C@@]2(CO1)c1cc(OCc3ccc(Br)cc3)ccc1Oc1ncc(-c3cccnc3)cc12 [Example 980]
Rank a against b by their IC50 values and give the higher one. Your answer should be the label attached to the chosen record.
b

----------
Biological target: Beta Secretase enzyme (BACE) (Homo sapiens)
Assay: In vitro enzymatic BACE FRET (fluorescence resonance energy transfer) assay
Assay type: biochemical
Settings: average IC50, enzyme assay; read-out: BACE 1 FRET assay
Procedure: In Vitro Enzymatic Bace Fret (Fluorescence Resonance Energy Transfer) Assay (Enzyme Assay Data in the Example Table I) The assay buffer used in this screen is 0.05 M acetate, pH 4.2, 10% DMSO final, 100 uM genapol (which is a nonionic detergent, below its Critical Micelle Concentration). […] The FRET assay is terminated with by addition of Tris buffer, which raises the pH to neutrality, and the fluorescence is determined. […]
pIC50: −log10 of the molar value.
endpointLabel: pIC50

Before answering, review these 10 worked examples.
[
  {
    "molecule": "NC1=N[C@@]2(CO1)c1cc(-c3ccc(F)nc3)ccc1Oc1c(F)cc(C3=CCOCC3)cc12",
    "observedValue": 8.72
  },
  {
    "molecule": "NC1=N[C@@]2(CO1)c1cc(-c3cnccc3F)c(F)cc1Oc1ncc(C3=CCOCC3)cc12",
    "observedValue": 8.66
  },
  {
    "molecule": "CC(C)(C#N)COc1cc(F)c2c(c1)[C@]1(COC(N)=N1)c1cc(-c3cccnc3)ccc1O2",
    "observedValue": 9.00
  },
  {
    "molecule": "CC(C)(C)C#Cc1cc2c(nc1F)Oc1ccc(-c3cccnc3F)cc1[C@]21COC(N)=N1",
    "observedValue": 6.62
  },
  {
    "molecule": "NC1=N[C@]2(CS1)c1cc(I)ccc1Oc1ncc(Br)cc12",
    "observedValue": 5.72
  },
  {
    "molecule": "NC1=N[C@@]2(CO1)c1cc(-c3cncc(F)c3)c(F)cc1Oc1ncc(C3=CCOCC3)cc12",
    "observedValue": 8.68
  },
  {
    "molecule": "NC1=N[C@@]2(CO1)c1cc(Oc3cc(Cl)ccn3)ccc1Oc1c(F)cc(N3CCOCC3)cc12",
    "observedValue": 7.65
  },
  {
    "molecule": "CC1(COc2cc(F)c3c(c2)[C@]2(CSC(N)=N2)c2cc(-c4cccnc4F)ccc2O3)COC1",
    "observedValue": 9.70
  },
  {
    "molecule": "CC1(COc2cc(F)c3c(c2)[C@]2(CSC(N)=N2)c2cc(-c4cccnc4F)c(F)cc2O3)COC1",
    "observedValue": 9.40
  },
  {
    "molecule": "NC1=N[C@@]2(CO1)c1cc(-c3c(F)ccnc3F)ccc1Oc1cnc(-c3ccncc3)cc12",
    "observedValue": 8.70
  }
]

a. CC1(C#Cc2cnc3c(c2)[C@]2(CSC(N)=N2)c2cc(-c4cccc(C#N)c4F)ccc2O3)COC1
b. NC1=N[C@@]2(CS1)c1cc(-c3cccnc3F)c(F)cc1Oc1c(F)cc(N3CCOCC3)cc12
c. CC(C)(C)C#Cc1cc2c(cn1)Oc1cc(F)c(-c3cncnc3)cc1[C@@]21COC(N)=N1
d. NC1=N[C@@]2(CO1)c1cc(-c3cccnc3F)ccc1Oc1ncc(C#CC3(O)COC3)cc12
e. NC1=N[C@@]2(CO1)c1cc(Oc3ccc(Cl)cn3)ccc1Oc1c(F)cc(N3CCOCC3)cc12
Would you mind ranking these compounds by ascending pIC50? API: response body holds the labels in the requested order.
e, c, d, a, b
